# Test system: Pseudomonas aeruginosa
# test: Antimicrobial activity against Pseudomonas aeruginosa ATCC 27853 after 18 to 20 hrs by microbroth dilution method
# Assay type: functional
Where a SMILES comes first, the peptide text is derived from it. [ ]: non-standard residue; d: D form.
measured property: MIC (µM)
Give the value, in units of µM, as a plain number.

{"columns": ["molecule", "measured property", "measurement"],
 "data": [
  ["CC[C@H](C)[C@H](NC(=O)[C@H](CCCNC(=N)N)NC(=O)CNC(=O)[C@@H](CC(C)C)NC(=O)[C@H](Cc1ccccc1)NC(=O)[C@H](CCCCN)NC(=O)[C@H](CO)NC(=O)[C@H](Cc1ccccc1)NC(=O)[C@H](Cc1c[nH]c2ccccc12)NC(=O)[C@@H]1CCCN1C(=O)[C@@H](NC(=O)[C@@H](N)Cc1ccccc1)C(C)C)C(=O)N[C@@H](CC(C)C)C(N)=O (H-FVPWFSKF[dL]GRIL-NH2)", "MIC", 50]
]}

Please find the next molecule below.
Quick note, MIC for `CC[C@H](C)[C@H](NC(=O)[C@H](CCCNC(=N)N)NC(=O)[C@@H]1C[C@@H](O)CN1C(=O)[C@@H](CC(C)C)NC(=O)[C@H](Cc1ccccc1)NC(=O)[C@H](CCCCN)NC(=O)[C@H](CO)NC(=O)[C@H](Cc1ccccc1)NC(=O)[C@H](Cc1c[nH]c2ccccc12)NC(=O)[C@@H]1CCCN1C(=O)[C@@H](NC(=O)[C@@H](N)Cc1ccccc1)C(C)C)C(=O)N[C@@H](CC(C)C)C(N)=O` landed at 50

---

hemolysis at 40 min, 3.125 µM listing for selected molecules.
# test: Hemolytic activity against human erythrocytes at 3.125 uM after 40 mins relative to control
# Format: ADME, cell-based, Erythrocyte
# stated conditions: read-out: Activity
Where a SMILES comes first, the peptide text is derived from it. [ ]: non-standard residue; d: D form.
The reply should contain only the number, in %.

Below, 2 molecules whose answers are already recorded.
{"columns": ["molecule", "measured property", "measurement"],
 "data": [
  ["CC[C@H](C)C(NC(=O)[C@H](CCCNC(=N)N)NC(=O)[C@@H](CCCCN)NC(=O)[C@@H](CC(C)C)NC(=O)[C@H](Cc1ccccc1)NC(=O)[C@H](CCCCN)NC(=O)[C@H](CO)NC(=O)[C@H](Cc1ccccc1)NC(=O)[C@H](Cc1c[nH]c2ccccc12)NC(=O)[C@@H]1CCCN1C(=O)[C@@H](NC(=O)[C@@H](N)Cc1ccccc1)C(C)C)C(=O)N[C@@H](CC(C)C)C(N)=O (single isomer, unassigned)", "hemolysis at 40 min, 3.125 µM", 0],
  ["CC[C@H](C)[C@H](NC(=O)[C@H](CCCNC(=N)N)NC(=O)[C@H](Cc1c[nH]c2ccccc12)NC(=O)[C@@H](CC(C)C)NC(=O)[C@H](Cc1ccccc1)NC(=O)[C@H](CCCCN)NC(=O)[C@H](CO)NC(=O)[C@H](Cc1ccccc1)NC(=O)[C@H](Cc1c[nH]c2ccccc12)NC(=O)[C@@H]1CCCN1C(=O)[C@@H](NC(=O)[C@@H](N)Cc1ccccc1)C(C)C)C(=O)N[C@@H](CC(C)C)C(N)=O (H-FVPWFSKF[dL]WRIL-NH2)", "hemolysis at 40 min, 3.125 µM", 2]
]}

response.value for CC[C@H](C)[C@H](NC(=O)[C@H](CCCNC(=N)N)NC(=O)CNC(=O)[C@@H](CC(C)C)NC(=O)[C@H](Cc1ccccc1)NC(=O)[C@H](CCCCN)NC(=O)[C@H](CO)NC(=O)[C@H](Cc1ccccc1)NC(=O)[C@H](Cc1c[nH]c2ccccc12)NC(=O)[C@@H]1CCCN1C(=O)[C@@H](NC(=O)[C@@H](N)Cc1ccccc1)C(C)C)C(=O)N[C@@H](CC(C)C)C(N)=O (H-FVPWFSKF[dL]GRIL-NH2) (field: hemolysis at 40 min, 3.125 µM) = 1
